Listed compounds paired with reported Cmax
- experiment-summary: Pharmacokinetics assay in rats after intragastrical administration
- Assay type: in vivo, SD rats
- particulars: Sprague-Dawley, rat, plasma, po; 30 mg/kg, intragastric, male rats; read-out: Plasma concentration Cmax
Report the figure along with its unit, number first.

// worked examples, Cmax included
| chemical-smiles | Cmax |
| --- | --- |
| COc1ccc(-n2c(COC(F)F)nnc2N2CC(c3cccc4cc(F)ccc34)C2)cn1 | 1060 ng/mL |
| COCc1nnc(N2CC(n3cc(C)c4cc(F)ccc43)C2)n1-c1ccc(OC)nc1 | 2020 ng/mL |
| COc1ccc(-n2c(COC(F)F)nnc2N2CC(n3cc(C)c4cc(F)ccc43)C2)cn1 | 1070 ng/mL |
| COc1ccc(-n2c(COC(F)F)nnc2N2CC(N3CCOc4cc(F)ccc43)C2)cn1 | 1120 ng/mL |
| COc1ccc(-n2c(N3CC(N4CCOc5cc(F)ccc54)C3)nnc2C(F)(F)F)cn1 | 1580 ng/mL |
| COc1ccc(-n2c(N3CC(N4CCCc5cc(F)ccc54)C3)nnc2C(F)(F)F)cn1 | 1200 ng/mL |

We next turn to a different compound, shown below.
Tell me its Cmax given COCc1nnc(N2CC(c3cccc4cc(F)ccc34)C2)n1-c1ccc(OC)nc1 as the entry. 3930 ng/mL

###

- experiment-summary: Pharmacokinetics assay in rats after intragastrical administration
- Assay type: in vivo, SD rats
- particulars: Sprague-Dawley, rat, plasma, po; 30 mg/kg, intragastric, male rats; read-out: Half-life T1/2 (converted)
- Method: Male SD rats were used as test animals. The drug concentration in plasma at different time points was determined by LC/MS/MS method after intragastrical administration of the compounds of Examples 2, 17, 34, 37, 38, 39 and 43 to rats. The pharmacokinetic behavior of the compounds of the present invention was studied and evaluated in rats. […]
Listed compounds paired with reported half-life

// worked examples, half-life included
| compound | half-life |
| --- | --- |
| COCc1nnc(N2CC(n3cc(C)c4cc(F)ccc43)C2)n1-c1ccc(OC)nc1 [Example 17] | 3.35 h |
| COc1ccc(-n2c(COC(F)F)nnc2N2CC(n3cc(C)c4cc(F)ccc43)C2)cn1 [Example 34] | 2.16 h |
| COCc1nnc(N2CC(c3cccc4cc(F)ccc34)C2)n1-c1ccc(OC)nc1 [Example 2] | 0.91 h |
| COc1ccc(-n2c(COC(F)F)nnc2N2CC(c3cccc4cc(F)ccc34)C2)cn1 [Example 38] | 2.83 h |
| COc1ccc(-n2c(COC(F)F)nnc2N2CC(N3CCOc4cc(F)ccc43)C2)cn1 [Example 37] | 2.95 h |

Tell me its half-life given COc1ccc(-n2c(N3CC(N4CCOc5cc(F)ccc54)C3)nnc2C(F)(F)F)cn1 [Example 43] as the entry. 3.31 h

Tell me its half-life given COc1ccc(-n2c(N3CC(N4CCCc5cc(F)ccc54)C3)nnc2C(F)(F)F)cn1 [Example 39] as the entry. 3.09 h

###

- experiment-summary: Pharmacokinetics assay in rats after intragastrical administration
- Format: in vivo, SD rats
- particulars: Sprague-Dawley, rat, plasma, po; 30 mg/kg, intragastric, male rats; read-out: Apparent distribution volume Vz/F
quantity-name: Vd/F
Report the figure along with its unit, number first.

// worked examples, Vd/F included
| chemical-smiles | Vd/F |
| --- | --- |
| COCc1nnc(N2CC(n3cc(C)c4cc(F)ccc43)C2)n1-c1ccc(OC)nc1 | 13.7 L/kg |
| COc1ccc(-n2c(COC(F)F)nnc2N2CC(c3cccc4cc(F)ccc34)C2)cn1 | 27.8 L/kg |
| COc1ccc(-n2c(COC(F)F)nnc2N2CC(n3cc(C)c4cc(F)ccc43)C2)cn1 | 17.8 L/kg |
| COc1ccc(-n2c(N3CC(N4CCOc5cc(F)ccc54)C3)nnc2C(F)(F)F)cn1 | 31.1 L/kg |

Tell me its Vd/F given COc1ccc(-n2c(COC(F)F)nnc2N2CC(N3CCOc4cc(F)ccc43)C2)cn1 as the entry. 56.3 L/kg

Tell me its Vd/F given COCc1nnc(N2CC(c3cccc4cc(F)ccc34)C2)n1-c1ccc(OC)nc1 as the entry. 5.29 L/kg

Tell me its Vd/F given COc1ccc(-n2c(N3CC(N4CCCc5cc(F)ccc54)C3)nnc2C(F)(F)F)cn1 as the entry. 35 L/kg
